- Target Entity: T1, cyno TfR extracellular domain (analogous construct to human TfR ecd) (cynomolgus monkey, UniProt Q5RDH6 87-760 (Pongo abelii entry))
- T1 construct: also called cynoTfR ecd
- T1 chain: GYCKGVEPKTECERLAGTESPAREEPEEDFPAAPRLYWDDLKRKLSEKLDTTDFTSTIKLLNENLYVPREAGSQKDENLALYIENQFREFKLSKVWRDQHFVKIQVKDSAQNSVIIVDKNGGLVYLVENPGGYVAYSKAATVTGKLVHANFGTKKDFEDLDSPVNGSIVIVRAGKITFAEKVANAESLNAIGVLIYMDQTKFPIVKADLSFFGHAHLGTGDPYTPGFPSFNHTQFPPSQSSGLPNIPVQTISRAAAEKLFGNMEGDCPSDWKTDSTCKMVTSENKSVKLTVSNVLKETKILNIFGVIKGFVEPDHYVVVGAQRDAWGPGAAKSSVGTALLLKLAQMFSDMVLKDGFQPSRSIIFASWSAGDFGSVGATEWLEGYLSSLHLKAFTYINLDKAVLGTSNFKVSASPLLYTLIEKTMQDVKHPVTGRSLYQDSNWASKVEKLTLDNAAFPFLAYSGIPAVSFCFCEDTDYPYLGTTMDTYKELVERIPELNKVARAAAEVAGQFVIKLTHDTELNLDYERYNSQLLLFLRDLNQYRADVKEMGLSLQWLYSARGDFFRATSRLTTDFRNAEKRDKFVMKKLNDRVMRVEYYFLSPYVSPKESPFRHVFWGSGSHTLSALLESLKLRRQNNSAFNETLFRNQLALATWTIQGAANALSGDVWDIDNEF
- Test Name: SPR, TfR captured by anti-His, Fab injected;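 further: single cycle kinetics with a Fab dilution series, fitted by a one-to-one Langmuir model or a steady state model, KD taken as koff over kon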
Metric: koff (s⁻¹)

Binder | Val
Mu7A4.Fab (Fab, V domains shown, Fab; also called mouse 7A4 Fab) VH: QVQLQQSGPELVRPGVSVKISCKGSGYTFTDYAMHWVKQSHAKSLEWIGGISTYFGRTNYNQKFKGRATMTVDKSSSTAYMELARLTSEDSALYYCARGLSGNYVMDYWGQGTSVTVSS VL: DIVLTQSPASLAVSLGQRATISCRASESVDDYGNSFMHWYQQKPGQPPKLLIYRASNLESGIPARFSGSGSRTDFTLTINPVEADDVATYYCQQSNEAPPTFGGGTKLEIR | 0.000845
Hu7A4.v9.Fab (Fab, V domains shown, Fab) VH: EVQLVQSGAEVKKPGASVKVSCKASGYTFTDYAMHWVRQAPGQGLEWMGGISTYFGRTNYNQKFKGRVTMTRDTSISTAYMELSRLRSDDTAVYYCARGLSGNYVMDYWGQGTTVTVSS VL: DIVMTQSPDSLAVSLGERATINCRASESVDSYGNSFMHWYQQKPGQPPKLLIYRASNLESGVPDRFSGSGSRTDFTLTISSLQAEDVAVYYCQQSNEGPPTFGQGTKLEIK | 0.00342
hu7A4.v15.Fab (Fab, V domains shown, Fab) VH: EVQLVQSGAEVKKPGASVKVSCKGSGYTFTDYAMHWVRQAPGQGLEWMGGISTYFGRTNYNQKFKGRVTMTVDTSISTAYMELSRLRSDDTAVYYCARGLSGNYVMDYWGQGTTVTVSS VL: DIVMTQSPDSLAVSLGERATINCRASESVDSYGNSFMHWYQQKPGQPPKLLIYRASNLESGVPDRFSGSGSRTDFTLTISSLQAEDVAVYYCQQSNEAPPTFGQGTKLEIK | 0.00162
